# Tested on: L1210 leukemia ip in BDF1 mice, survival T/C
# assay info: NCI In Vivo Anticancer Drug Screen. Data for tumor model L1210 Leukemia (intraperitoneal) in B6D2F1 (BDF1) mice
# condition context: endpoint: mean survival time; dose: 200.0 mg/kg/injection; schedule: Q01DX001 (ip); vehicle: saline with Tween-80; higher = longer survival
Toxic doses and inconclusive results are not listed.
observed property: T/C

INPUT: I'd like to know its T/C. The compound in question is `Cc1ccc(S(=O)(=O)N/N=C(/c2ccccc2)c2ccsc2C)cc1`
OUTPUT: 88 % of control

INPUT: Another compound: `CCCCN(CCCC)C(=O)N(CCCC)CCCC`
OUTPUT: 101 % of control

INPUT: Record: `NS(=O)(=O)c1ccc(NC(=O)Nc2cccc3ccccc23)cc1`
OUTPUT: 87 % of control

INPUT: Now this one: `CCCCCC[Si]CCCCCC`
OUTPUT: 100 % of control

INPUT: Now the same for `O=C(/C=C/c1ccccc1)NC(=S)Nc1cccc2ccccc12`
OUTPUT: 97 % of control

INPUT: And what about the compound `O=C(N/N=C/c1[nH]c(=S)[nH]c(=O)c1Cc1ccc(Cl)cc1)c1ccccc1` ?
OUTPUT: 92 % of control

INPUT: Ok, now `O=C(O)CSC(=S)N1CCOCC1`
OUTPUT: 88 % of control

INPUT: Query `CCOC(=O)c1ccc(NC(=O)Nc2ccc(OC)cc2Cl)cc1` next
OUTPUT: 91 % of control

INPUT: Also `O=C1C(c2ccc(Br)cc2)=C(c2ccccc2)c2c(-c3ccccc3)cc(Br)c(-c3ccccc3)c21` ?
OUTPUT: 90 % of control

INPUT: Please give the result for `CC(=O)Nc1ccc(OC(=O)Nc2cccc(Cl)c2C)cc1` too.
OUTPUT: 94 % of control

INPUT: Ok, now `O=[N+]([O-])c1ccc(S(=O)(=O)OCc2cccc(OS(=O)(=O)c3ccc([N+](=O)[O-])cc3)c2)cc1`
OUTPUT: 104 % of control

INPUT: Quick one: `CCCCCCCCCCC(CCCCCCCCCC)CC(C)(C)C`
OUTPUT: 103 % of control

----------
# Tested on: L1210 leukemia ip in BDF1 mice, survival T/C
# assay info: NCI In Vivo Anticancer Drug Screen. Data for tumor model L1210 Leukemia (intraperitoneal) in B6D2F1 (BDF1) mice
# condition context: endpoint: mean survival time; dose: 50.0 mg/kg/injection; schedule: Q01DX009 (ip); vehicle: saline with Tween-80; higher = longer survival
Toxic doses and inconclusive results are not listed.
observed property: T/C

INPUT: Short answer please: T/C, L1210 leukemia ip in BDF1 mice, survival T/C, entry `COc1ccc(/C=N/NC(=O)c2ccc(Cl)cc2Cl)cc1OC`
OUTPUT: 103 % of control

INPUT: Continue with `Nc1ccn(CC(=O)c2cccs2)c(=O)n1`
OUTPUT: 98 % of control

INPUT: Now consider O=[N+]([O-])c1ccc2c(ccn2C2OCC(O)C(O)C2O)c1 (centres undefined) and answer again.
OUTPUT: 98 % of control

INPUT: Field entry: OC1CCCCC1c1ccccc1 (centres undefined)
OUTPUT: 87 % of control

INPUT: Do the same for `Nc1c2ccccc2cc2ccccc12` please
OUTPUT: 91 % of control

INPUT: Continue with `O=C(CNC(=O)Nc1nccs1)N/N=C/c1ccc(Cl)cc1`
OUTPUT: 106 % of control

INPUT: How about `CC(C)=C(CO)CCC(C)C` ?
OUTPUT: 100 % of control

INPUT: // query: `N#Cc1ccc(Nc2ccc(C#N)cc2)cc1`
OUTPUT: 94 % of control

INPUT: Param item: `Nc1nc(Cl)c2[nH]cnc2n1`
OUTPUT: 107 % of control

INPUT: Then `C/C=C/C(OC(C)=O)OC(C)=O` ?
OUTPUT: 101 % of control

INPUT: Moving on to the next compound: O=P(NCCO)(OCC(Br)CBr)OCC(Br)CBr (centres undefined)
OUTPUT: 94 % of control

INPUT: Entry to check: CCOC(=O)C(CC(C)C)NC(=O)CCCCSc1ncnc2nc[nH]c12 (centres undefined)
OUTPUT: 112 % of control

INPUT: Same lookup for `Cc1ccc(CNc2ccc([N+](=O)[O-])cc2)cc1` , please.
OUTPUT: 92 % of control

INPUT: What do we get for CC1CC(C)(C)CC2(C1)OCCCO2 (centres undefined) ?
OUTPUT: 90 % of control

INPUT: Here is the next compound: `Cc1ccc(OCc2c(COc3ccc(Cl)cc3)sc3ccc(Cl)cc23)cc1`
OUTPUT: 101 % of control

INPUT: Then this compound: `COc1ccc(/C=C/C(=O)c2cc(C(=O)O)c(OC)cc2OC)cc1OC`
OUTPUT: 98 % of control

INPUT: Cool, now `[O-][n+]1ccccc1C(c1ccccc1)c1ccccc1`
OUTPUT: 90 % of control

INPUT: Same question, `O=C(/C=C/c1ccccc1)NC(=S)Nc1cccc2ccccc12` this time
OUTPUT: 94 % of control

INPUT: Thanks! And `O=[N+]([O-])Cc1c2ccccc2nc2ccccc12` ?
OUTPUT: 87 % of control

INPUT: And `CCOC(=O)N/N=C/C(Br)=C\c1ccccc1` ?
OUTPUT: 93 % of control

INPUT: And what about the compound `COc1ccc2c(c1OC)CCCCC2=O` ?
OUTPUT: 102 % of control

INPUT: How about `O=C(CNC(=O)Nc1ccc(Cl)c(Cl)c1)N/N=C/c1c(O)ccc2ccccc12` ?
OUTPUT: 93 % of control

INPUT: And then `CC(C)=CCC/C(C)=C\CCl` , what is it?
OUTPUT: 106 % of control

INPUT: Now this one: `Fc1ccc(NC(=S)SCc2ccc(Cl)c(Cl)c2)cc1F`
OUTPUT: 108 % of control
